Data origin: patent US5698444A

MEASURED TARGET: human 5-HT2B receptor (Homo sapiens)
Construct: expressed in transfected cells
Sequence (P41595 whole entry): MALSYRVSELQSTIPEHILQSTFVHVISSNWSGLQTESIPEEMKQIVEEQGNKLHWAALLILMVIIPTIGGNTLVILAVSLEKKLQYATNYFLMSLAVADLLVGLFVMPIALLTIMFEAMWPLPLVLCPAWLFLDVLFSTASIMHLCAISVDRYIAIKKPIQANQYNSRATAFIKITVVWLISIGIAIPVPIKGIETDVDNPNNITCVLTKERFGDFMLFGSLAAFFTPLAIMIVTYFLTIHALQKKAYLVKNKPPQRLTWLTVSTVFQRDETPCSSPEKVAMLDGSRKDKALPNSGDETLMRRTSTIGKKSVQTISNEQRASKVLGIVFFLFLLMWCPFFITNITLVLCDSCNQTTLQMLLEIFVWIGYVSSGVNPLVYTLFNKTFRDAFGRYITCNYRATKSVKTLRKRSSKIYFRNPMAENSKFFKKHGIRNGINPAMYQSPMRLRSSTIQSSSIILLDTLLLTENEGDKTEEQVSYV
MEASUREMENT DESCRIPTION: competition assay: inhibition of binding of [3H]5-hydroxytryptamine to the cloned human 5-HT2B receptor (cell membranes)
Catalogue of molecules with associated IC50
Kindly provide the numeric value in nM only, without the unit symbol.

1) c1ccc2c(N3CCNCC3)cccc2c1 = 2.41

Kindly consider the entry below.
Request: State its IC50: CC(N)Cc1c[nH]c2ccc(O)cc12 (stereo not drawn) [α-methyl-5-hydroxytryptamine, 3-(2-aminopropyl)-1H-indol-5-ol]
Result: 11.8

---

MEASURED TARGET: human 5-HT2B receptor (Homo sapiens)
Construct: expressed in transfected cells
MEASUREMENT DESCRIPTION: competition assay: inhibition of binding of [3H]5-hydroxytryptamine to the cloned human 5-HT2B receptor (cell membranes)
COND: read-out: IC50 (concentration which displaces or inhibits the binding of 50% of the labeled 5-hydroxytryptamine)
ATTRIBUTE MEASURED: pIC50
# log scale: pIC50 equals minus log10 of the concentration in mol/L

Request: State its pIC50: O=C(CCCN1CCC2(CC1)C(=O)NCN2c1ccccc1)c1ccc(F)cc1
Result: 6.16
